test: inhibitors of the yeast RAM network, pilot screen, dse1pr::URA3 reporter, 5-FOA selection (AID 869);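 note: 0% = DMSO wells with no growth and 100% = 10 µM 1-NA-PP1 with full growth; RAM network block rescues cells from 5-FOA so hits raise OD615 growth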; conditions: S. cerevisiae dse1pr::URA3 5-FOA growth, OD615, 2 d; at 10 µM; hits give high values; strain carries analog-sensitive mutant Cbk1 kinase
Returns one of fulfilled or not fulfilled; fulfilled when inhibition is >= 0.3%.

1. O=C(Cn1cc2c(n1)CCCC2)N1CCc2ccccc21    fulfilled
2. CC(=O)N(c1c(C)n(C)n(-c2ccccc2)c1=O)C1(C(=O)NC2CCCC2)CCCCC1    not fulfilled
3. COc1ccc2cc(CCNC(=O)c3c(-c4ccccc4Cl)noc3C)c(=O)[nH]c2c1    fulfilled
4. COC(=O)CC1Oc2ccc(C)cc2NC1=O (stereo unspecified)    not fulfilled
5. CCOC(=O)C1CCCCN1Cc1cc(Cl)ccc1O (stereo unspecified)    fulfilled
6. Cc1c(C(=O)N2CCN(C(=O)c3ccco3)CC2)sc2nc(-c3ccc(F)cc3)cn12    not fulfilled

* * *

Recorded viability values for a group of molecules are listed next.
assay: growth suppression of PTEN-deleted HCT116, pilot screen, cell-based, HCT116 clonal line, CellTiter-Glo (AID 824); conditions: 60 h, at 10 µM, hits give low values;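 note: 0% = 20 µM Hyamine control and 100% = vehicle cell control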
Results filed as inconclusive are left out.
Property Name: viability (%)

1) OCCCc1nc2n(n1)C(c1cccs1)C=C(c1ccccc1)N2 (stereo unspecified)    84.7
2) CCn1c(/C=N/n2cnnc2)nc2ccccc21    92.8
3) CCOC(=O)C1CCN(C(c2ccc(OC)c(OC)c2)c2sc3nc(C)nn3c2O)CC1 (stereo unspecified)    96.1
4) CN(C)CCCCCNCCCNC(=O)/C=N\O    103
5) COC(=O)c1cc(OC)c(OC)cc1-n1cnc2cc(OC)c(OC)cc2c1=O    105
6) COc1cccc(-n2c(Cc3cc(=O)[nH]c(=O)[nH]3)nnc2SCC(=O)Nc2ccccc2)c1    97.8
7) COc1cc2[nH]c(=O)n(CCCCCC(=O)NCCCN3CCOCC3)c(=O)c2cc1OC    89.6
8) NC(=O)c1sc(=S)n(-c2ccc(Br)cc2)c1N    83.7
9) NC(=O)C1CCN(c2ncnc3c2c(-c2ccccc2)cn3-c2ccccc2)CC1    81.9
10) O=C1C(Cl)=C(N2CCOCC2)C(=O)N1c1ccccc1Cl    103
11) CCC(NC(=O)c1ccccc1NC(=O)c1ccco1)C(=O)O (stereo unspecified)    95.7

* * *

assay: growth suppression of beta-catenin knockout HCT116, pilot screen, human colon tumor cells (AID 823); conditions: CellTiter-Glo, 60 h, at 10 µM, hits give low values;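 note: 0% = wells killed by 20 µM Hyamine and 100% = untreated DMSO cell wells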
Inconclusive results are not listed.
Property Name: viability (%)

1. CCCN1C(=O)c2cc(C(=O)NCc3cccs3)ccc2C1O (stereo not drawn)    107
2. Cc1ccc(-c2nnc(SCC(=O)Nc3ccccc3F)o2)cc1    41.8
3. CCSc1nc2c([nH]c3ccccc32)c(=O)n1C    105
4. COc1ccc(C)cc1NC(=O)CN1C(=O)c2ccccc2S1(=O)=O    102
5. COc1ccc(OC)c2sc(NC(=O)CCS(=O)(=O)c3ccccc3)nc12    36.1
6. Nc1c(C(=O)c2ccc(Br)s2)oc2ccccc12    88.8
7. Cn1c(=O)c2c(nc(SCCN3CCOCC3)n2Cc2ccccc2Cl)n(C)c1=O    91.8
8. Cc1ccc(N2CCN(S(=O)(=O)c3ccc(F)cc3)CC2)c(C)c1    66.6
9. c1ccc2c(c1)CCCN2c1nc2ccccc2n2cnnc12    91.2
10. COCc1cc(C)nc2sc(C(=O)N3CCN(c4ccccc4)CC3)c(N)c12    89
11. O=C(Cc1c(F)cccc1Cl)c1ccc(O)cc1O    99.8
12. CC(=O)c1ccc(-n2nncc2C(C)(C)C)cc1    98.6
13. O=C(CCSc1ccccc1)Nc1nnc(-c2ccccc2)o1    98.9
14. CCOc1ccc(-c2nc(CSCC(=O)N3CCN(C(=O)c4ccco4)CC3)c(C)o2)cc1    81.9
15. O=C(O)CCc1nnc2n(Cc3ccc(F)cc3)c(=O)c3ccccc3n12    99.2
16. CCOc1cccc(C2c3c(oc4cc(C)c(C)cc4c3=O)C(=O)N2CCCN(C)C)c1 (stereo not drawn)    92.9
17. O=C(NCCc1ccccc1)c1ccc2c(c1)N(Cc1ccccc1)C(=O)CS2=O (stereo not drawn)    96.3
18. CCOC(=O)C1CCN(CC(O)COc2ccc(C(C)=O)cc2)CC1 (stereo not drawn)    97.6
19. Brc1cnc(N2CCCC2)nc1N1CCCCC1    86.2
20. Cc1cc2n(c1)CCn1c(C)ccc1-2    97.8
21. Cc1cc(Nc2cc(C(=O)O)ccc2C)n2ncnc2n1    95.9
22. CCC1CCCCN1Cc1nc2c(c(=O)n(C)c(=O)n2C)n1Cc1cccc2ccccc12 (stereo not drawn)    92.5
23. O=C(NCCC1=CCCCC1)C1CCCN(S(=O)(=O)c2cccnc2)C1 (stereo not drawn)    95.8
